- assay procedure: in vitro
- condition description: human, HepG2-2.2.15 cells
No end group written: not given here.
measurement label: viability at 144 h, 10 micrograms per ml (%)

* SFLLRNPNDKYEPF-OH [TRAP-14] | 84.5

---

- assay procedure: Cytotoxicity in CEM-SS cells (MTS cell viability)
- condition description: human
No end group written: not given here.
measurement label: viability at 10 micrograms per ml

- SFLLRNPNDKYEPF-OH [TRAP-14]: 100%

---

- assay procedure: Cytotoxicity in MRC-5 cells (CellTiter 96)
- condition description: human
No end group written: not given here.
measurement label: viability at 144 h (%)

- SFLLRNPNDKYEPF-OH [TRAP-14]: 100

Origin of the recorded values: patent US20100210559A1
